Documented inhibition of SARS-CoV-2 cytopathic effect across a set of compounds
- System: Vero E6 infected with SARS-CoV-2
- ASSAY EXPLANATION: inhibition of SARS-CoV-2 cytopathic effect; higher = more antiviral protection, active = above 15
- EXPERIMENTAL SETUP: 833.33 nM; 48 h
Answer format: numeric, % implied, no suffix.

Below, 8 compounds whose answers are already recorded.
{"COMPOUND": "Cc1cccc(C(=O)NCN2CCN(c3ccccc3C#N)CC2)c1", "UNITS TEXT": "%", "OBSERVED": 0.2}
{"COMPOUND": "CCCC(=O)O [sodium-butyrate]", "UNITS TEXT": "%", "OBSERVED": -0.53}
{"COMPOUND": "O=C(O)C(=O)c1cn(Cc2ccccc2)c2ccc(-c3ccc(OC(F)(F)F)cc3)cc12", "UNITS TEXT": "%", "OBSERVED": 2.13}
{"COMPOUND": "COc1ccccc1CN[C@H]1CCCN[C@H]1c1ccccc1", "UNITS TEXT": "%", "OBSERVED": -1.82}
{"COMPOUND": "CCOc1cc2ncc(C#N)c(Nc3ccc(F)c(Cl)c3)c2cc1NC(=O)/C=C/CN(C)C", "UNITS TEXT": "%", "OBSERVED": -5.27}
{"COMPOUND": "CC(=O)O[C@H]1C[C@@H]2CC[C@@H]3[C@H](CC[C@@]4(C)[C@H]3C[C@H](N3CC[N+](C)(C)CC3)[C@@H]4OC(C)=O)[C@@]2(C)C[C@@H]1N1CC[N+](C)(C)CC1", "UNITS TEXT": "%", "OBSERVED": -1.81}
{"COMPOUND": "CC(C)(N)CC12CC3CC(CC(C3)C1)C2", "UNITS TEXT": "%", "OBSERVED": -1.44}
{"COMPOUND": "COc1cc(Br)c(Nc2nc(-c3c(C)nc4ncccn34)cs2)c(Br)c1", "UNITS TEXT": "%", "OBSERVED": -3.16}

Now examine the next entry.
Req: Consider the compound "C=C(C)CN1CC[C@]23c4c5ccc(O)c4O[C@H]2c2[nH]c4ccccc4c2C[C@@]3(O)C1C5" and give its measured inhibition of SARS-CoV-2 cytopathic effect.
Resp: 0.21

====

- Tested on: Vero E6 infected with SARS-CoV-2
- ASSAY EXPLANATION: inhibition of SARS-CoV-2 cytopathic effect; higher = more antiviral protection, active = above 15
- EXPERIMENTAL SETUP: 100 nM; 48 h
Documented inhibition of SARS-CoV-2 cytopathic effect across a set of compounds
Answer format: numeric, % implied, no suffix.

Below, 3 compounds whose answers are already recorded.
{"COMPOUND": "CCN1CCN(c2ccc(C(C)(C)NC(=O)c3cc4[nH]c5ccccc5c(=O)c4cc3F)cn2)CC1", "OBSERVED": 3.59}
{"COMPOUND": "CS(=O)(=O)c1cccc(CNc2nc(Nc3ccc4c(c3)CCC(=O)N4)ncc2C(F)(F)F)c1", "OBSERVED": 0.06}
{"COMPOUND": "N[C@H]1C(O)O[C@H](CO)[C@@H](O)[C@@H]1O (mixture of isomers)", "OBSERVED": 2.73}

Now examine the next entry.
Req: Consider the compound "CC[C@H](CC[C@@H](C)[C@H]1CC[C@H]2[C@@H]3CC=C4C[C@@H](O[C@@H]5O[C@H](CO)[C@@H](O)[C@H](O)[C@H]5O)CC[C@]4(C)[C@H]3CC[C@]12C)C(C)C" and give its measured inhibition of SARS-CoV-2 cytopathic effect.
Resp: 0.27

====

- System: Vero E6 infected with SARS-CoV-2
- ASSAY EXPLANATION: inhibition of SARS-CoV-2 cytopathic effect; higher = more antiviral protection, active = above 15
- EXPERIMENTAL SETUP: 833.33 nM; 48 h
Documented inhibition of SARS-CoV-2 cytopathic effect across a set of compounds
Answer format: numeric, % implied, no suffix.

{"COMPOUND": "CCCN[C@H]1CCc2nc(N)sc2C1 [pramipexole]", "EXPERIMENTAL SYSTEM": "Vero E6 infected with SARS-CoV-2", "OBSERVED": -2.16}
{"COMPOUND": "C[C@]12CCC(=O)C=C1CC[C@@H]1[C@@H]2[C@@H](O)C[C@@]2(C)[C@H]1CC[C@]2(O)C(=O)COC(=O)CCC(=O)O [hydrocortisone-hemisuccinate]", "EXPERIMENTAL SYSTEM": "Vero E6 infected with SARS-CoV-2", "OBSERVED": -3.7}
{"COMPOUND": "N[C@@H](Cc1cc(-c2ccc(Cl)cc2Cl)cc(CP(=O)(O)O)c1O)C(=O)O", "EXPERIMENTAL SYSTEM": "Vero E6 infected with SARS-CoV-2", "OBSERVED": 2.63}
{"COMPOUND": "O=NO [sodium-nitrite]", "EXPERIMENTAL SYSTEM": "Vero E6 infected with SARS-CoV-2", "OBSERVED": 3.43}
{"COMPOUND": "CCN1CCN(Cc2ccc(-c3cc4c(N[C@H](C)c5ccccc5)ncnc4[nH]3)cc2)CC1", "EXPERIMENTAL SYSTEM": "Vero E6 infected with SARS-CoV-2", "OBSERVED": -10.4}

Req: Consider the compound O=S(=O)(F)Cc1ccccc1 [phenylmethylsulfonyl-fluoride] and give its measured inhibition of SARS-CoV-2 cytopathic effect.
Resp: 0.75

====

Documented inhibition of SARS-CoV-2 cytopathic effect across a set of compounds
- Test system: Vero E6 infected with SARS-CoV-2
- ASSAY EXPLANATION: inhibition of SARS-CoV-2 cytopathic effect; higher = more antiviral protection, active = above 15
- EXPERIMENTAL SETUP: 10000 nM; 48 h
Answer format: numeric, % implied, no suffix.

{"COMPOUND": "Cc1c(C)c2c(c(C)c1O)CCC(C)(COc1ccc(CC3SC(=O)NC3=O)cc1)O2 (centres undefined)", "OBSERVED": 5.84}
{"COMPOUND": "CC1(C)[C@H](C(=O)O)N2C(=O)C[C@H]2S1(=O)=O", "OBSERVED": -3.63}
{"COMPOUND": "Fc1ccc(C(c2ccccc2)(c2ccccc2F)n2ccnc2)cc1 (centres undefined)", "OBSERVED": -1.07}
{"COMPOUND": "O=C(NCC1(N2CCN(c3ccccc3)CC2)CCOCC1)c1cccnc1Sc1ccccc1", "OBSERVED": 0.86}
{"COMPOUND": "N=C(N)NCCN1CCCCCCC1", "OBSERVED": 0.3}

Req: Consider the compound CC(N)C12CC3CC(CC(C3)C1)C2 (centres undefined) and give its measured inhibition of SARS-CoV-2 cytopathic effect.
Resp: -5.71

Req: Consider the compound "CN(C)N(C)C(=O)[C@@]1(Cc2ccccc2)CCCN(C(=O)[C@@H](Cc2c[nH]c3ccccc23)NC(=O)C(C)(C)N)C1" and give its measured inhibition of SARS-CoV-2 cytopathic effect.
Resp: -0.05

Req: Consider the compound "O=C(NCc1cccc(O)c1)Nc1nc(-c2ccncc2)cs1" and give its measured inhibition of SARS-CoV-2 cytopathic effect.
Resp: -6.11

Req: Consider the compound NC(=O)N1c2ccccc2C=Cc2ccccc21 [carbamazepine] and give its measured inhibition of SARS-CoV-2 cytopathic effect.
Resp: -3.17

====

Documented inhibition of SARS-CoV-2 cytopathic effect across a set of compounds
- System: Vero E6 infected with SARS-CoV-2
- ASSAY EXPLANATION: inhibition of SARS-CoV-2 cytopathic effect; higher = more antiviral protection, active = above 15
- EXPERIMENTAL SETUP: 833.33 nM; 48 h
Answer format: numeric, % implied, no suffix.

Below, 2 compounds whose answers are already recorded.
{"COMPOUND": "CC(C)OC(=O)N1CCC(Oc2ncnc3c2cnn3-c2ccc(S(C)(=O)=O)cc2F)CC1", "EXPERIMENTAL SYSTEM": "Vero E6 infected with SARS-CoV-2", "OBSERVED": -0.97}
{"COMPOUND": "CCN(CC)CC#CCOC(=O)C(O)(c1ccccc1)C1CCCCC1 (centres undefined) [oxybutynin]", "EXPERIMENTAL SYSTEM": "Vero E6 infected with SARS-CoV-2", "OBSERVED": 0.84}

Req: Consider the compound C[N+]1(C)[C@@H]2CC[C@H]1C[C@@H](OC(=O)C(O)c1ccccc1)C2 (some centres undefined) [homatropine-methylbromide] and give its measured inhibition of SARS-CoV-2 cytopathic effect.
Resp: 0.62

Req: Consider the compound CCN(CC)Cc1ccc2cc(COC(=O)Nc3ccc(C(=O)NO)cc3)ccc2c1 [givinostat] and give its measured inhibition of SARS-CoV-2 cytopathic effect.
Resp: -19.8

====

- Tested on: Vero E6 infected with SARS-CoV-2
- ASSAY EXPLANATION: inhibition of SARS-CoV-2 cytopathic effect; higher = more antiviral protection, active = above 15
- EXPERIMENTAL SETUP: 8.33 nM; 48 h
Documented inhibition of SARS-CoV-2 cytopathic effect across a set of compounds

Below, 6 compounds whose answers are already recorded.
{"COMPOUND": "O=C1NC(=O)c2c1c1c3ccccc3n3c1c1c2c2ccccc2n1C1CCC3O1", "OBSERVED": "2.27% (inactive)"}
{"COMPOUND": "Clc1cccc(/C=N/N=C/c2cccc(Cl)c2)c1", "OBSERVED": "1.74% (inactive)"}
{"COMPOUND": "C[S+](CC[C@H](N)C(=O)O)C[C@H]1O[C@@H](n2cnc3c(N)ncnc32)[C@H](O)[C@@H]1O (some centres not stated)", "OBSERVED": "-1.8% (inactive)"}
{"COMPOUND": "COC(=O)N[C@H](C(=O)N1CCC[C@H]1C(=O)Nc1ccc([C@@H]2CC[C@@H](c3ccc(NC(=O)[C@@H]4CCCN4C(=O)[C@@H](NC(=O)OC)C(C)C)cc3)N2c2ccc(C(C)(C)C)cc2)cc1)C(C)C", "OBSERVED": "-0.6% (inactive)"}
{"COMPOUND": "CCC(=O)N1CCN(c2ccc(-n3c(=O)ccc4cnc5ccc(-c6cnc7ccccc7c6)cc5c43)cc2C(F)(F)F)CC1", "OBSERVED": "-1.08% (inactive)"}
{"COMPOUND": "O=C(O[C@H]1CN2CCC1CC2)N(Cc1cc(F)c(F)c(F)c1)c1cccc(F)c1", "OBSERVED": "-0.35% (inactive)"}

Req: Consider the compound C=C1C(=O)O[C@@H]2/C=C(\C)CC/C=C(\C)CC[C@@H]12 [costunolide] and give its measured inhibition of SARS-CoV-2 cytopathic effect.
Resp: -0.24% (inactive)
